Overview of reported melting point across a group of molecules:
TEST_READOUT: melting point

>>> result("Nc1nccc(-c2c[nH]c3nccc(C#Cc4ccccc4)c23)n1")
"> 210 °C"
>>> result("NCC1Cc2cc(C(F)(F)F)cc(-c3ccc(F)c(Cl)c3)c2O1 (stereo not drawn)")
"> 250 °C"
>>> result("CNS(=O)(=O)c1ccc(F)cc1")
"67 to 70 °C"
>>> result("CCOC(=O)c1ccc2nc(N)oc2c1")
"211 to 212 °C"
>>> result("CCS(=O)(=O)OC(c1cccc(C(O)(C(F)(F)F)C(F)(F)F)c1)(C(F)(F)F)C(F)(F)F")
"64 °C"
>>> result("CC(=O)c1cccnc1N(C)C1CCN(Cc2ccccc2)CC1")
"93 to 94 °C"
>>> result("COc1ccccc1Oc1cccc2c1C(=O)N(C1CCC(=O)NC1=O)C2=O (stereo not drawn)")
"223 to 225 °C"
>>> result("COc1cc(COc2nn(-c3ccccc3)cc2Cn2cncn2)ccc1OCc1nc(-c2ccco2)oc1C")
"149 to 150 °C"
>>> result("COc1cc(CN(C)CCCOc2ccc(NC(=O)c3cccc4c(=O)c5cccc(OC)c5[nH]c34)cc2)cc(OC)c1OC")
"186 °C"
>>> result("Cn1ncc(C(=O)N2CCC2)c1C(=O)Nc1ccn2nc(-c3cccnc3)nc2c1")
"253 to 254 °C"
>>> result("COc1cc(COc2ncccc2CC(=O)O)ccc1OCc1nc(-c2ccccc2)oc1C")
"145 to 146 °C"
>>> result("Cc1ccc2[nH]c(=O)n(C(C)(C)C(=O)O)c(=O)c2c1")
"268 to 271 °C"
>>> result("CN1CCN(C(=O)OC2C3=C(SCCS3)C(=O)N2c2ccc3c(Cl)ccnc3n2)CC1 (stereo not drawn)")
"240 °C"
